- target.entity: acetylcholine receptor
- assay.remarks: SPR, AchR on chip, peptide 10 uM
observable: Binding affinity (RU)
Output spec: scalar in RU, unitless text.

Query: Entry KWYTR [5mer-232] : reported Binding affinity (RU) = ?
Reply: 71

Query: Next binder up: KSQLR [5mer-30]
Reply: 70

Query: Entry RRISK [5mer-33] please
Reply: 59

Query: Try this binder next: KVQYR [5mer-309]
Reply: 70

Query: // same read-out, input: KRVSK [5mer-503]
Reply: 61

Query: Same again, this time with KQQQR [5mer-538]
Reply: 72

Query: Same for KLQRR [5mer-217]
Reply: 72

Query: Try KRIYK [5mer-17] next.
Reply: 70

Query: Can you handle KGLLK [5mer-231] next?
Reply: 60
